Test system: OVCAR-8 ovarian
Experiment: NCI-60 one-dose screen, 48 h (100 = growth as untreated, 0 = no growth, -100 = all killed)
Conditions: 10 µM unless noted
Description: Growth inhibition of the OVCAR-8 human tumor cell line is measured as a screen for anti-cancer activity. Cells are grown in 96 well plates and exposed to the test compound for 48 hours. Compounds are tested at a single concentration, which is 10^-5 M for most compounds. The reported endpoint is percent growth (GI% or GIPRCNT), where numbers from 0 - 100% represent growth inhibition, and numbers from -100% - 0 represent cell death. For example, a value of 40 represents 60% growth inhibition. […]
The panel holds about 83,000 compounds, 20% with a hit somewhere; the sample as a whole holds those more often.
observation.type: growth (%)
Give bare numbers, in %.

Observe how each entry below is paired with its result.
COc1cc(OC)cc(C(=O)Nc2cc(-c3cccnc3)nc(NCCCN3CCOCC3)n2)c1 ... 91.8
N#Cc1ccc(-c2ccc(COc3ccc(CC4SC(=O)NC4=O)cc3)cc2)cc1 (stereo not drawn) ... 58.3
Nc1nc(Nc2ccccc2)c2ncn(Cc3ccc4c(c3)OCO4)c2n1 ... 55.1
Cc1nn(-c2ccccc2)c(N2CCOCC2)c1-c1nc2ccc([N+](=O)[O-])cc2[nH]1 ... 102
CCN=Cc1c(O)c(O)c(C(C)C)c2cc(C)c(-c3c(C)cc4c(C(C)C)c(O)c(O)c(C=NCC)c4c3O)c(O)c12 ... 39.2
O=C(O)c1ccccc1C(F)(F)F ... 105
CCOc1ccc(S(=O)(=O)Nc2ccc3c(c2)N(S(=O)(=O)CC)CCC3)cc1 ... 77.5

Now for the compound whose growth we want.
Query string: Request body: readout growth, system OVCAR-8 ovarian, query N#C/C(C(=O)c1ccccc1)=C1/C(=O)Nc2ccccc21 . Return the value.
Result string: 97.2

----------
test system: 786-0 renal; experiment: NCI-60 one-dose screen, 48 h (100 = growth as untreated, 0 = no growth, -100 = all killed); settings: 10 µM unless noted
The panel holds about 83,000 compounds, 20% with a hit somewhere; the sample as a whole holds those more often. Active and inactive are the calls of the source. Rule for the calls: active = growth percent below 10; inactive = the rest.
observation.type: growth

Observe how each entry below is paired with its result.
Nc1ccc2c(c1)Cc1cc(NC(=O)C(F)(F)F)ccc1-2 ... 108% (inactive)
C=C(C)[C@@H]1CC[C@]2(C)[C@H](CC[C@@H]3[C@@H]([C@@](C)(O)CCC=C(C)C)CC[C@]32C)[C@@]1(C)CCC(=O)N1CCN(C)CC1 ... -92.7% [100 µM] (active)

Now for the molecule whose growth we want.
Query string: Suppose we examine the molecule COc1cc(NCc2cn(-c3ccc(C(=O)O)cc3)nc2-c2ccc(C(=O)O)cc2)cc(OC)c1OC ; what growth value has been reported?
Result string: 90.8% (inactive)

----------
system: EKVX NSCLC; assay: NCI-60 one-dose screen, 48 h (100 = growth as untreated, 0 = no growth, -100 = all killed); settings: 10 µM unless noted
Compounds without any hit were thinned out: in the full panel of roughly 83,000, 20% have a hit. Activity calls are given as the source filed them. Rule for the calls: active = growth percent below 10; inactive = the rest.
Assign growth to each entry below.

Observe how each entry below is paired with its result.
Brc1ccc2c(c1)CN(C1CCCCC1)CO2 ... 101% (inactive)
O=C1/C(=C/c2cccc(OCc3ccccc3)c2)Oc2cc(OCCN3CCCCC3)ccc21 ... 87.6% (inactive)

Now for the molecule whose growth we want.
Query string: Suppose we examine the molecule C#C[C@]1(O)CC[C@H]2[C@@H]3CC=C4c5nc(Nc6ccc(OC)cc6OC)sc5CC[C@]4(C)[C@H]3CC[C@@]21C ; what growth value has been reported?
Result string: 24.7% (inactive)

----------
test system: HT29 colon; test: NCI-60 one-dose screen, 48 h; settings: 10 µM unless noted
Compounds without any hit were thinned out: in the full panel of roughly 83,000, 20% have a hit. Calls of active or inactive are those of the source. Rule for the calls: active = growth percent below 10; inactive = the rest.
Please reply with one of these outcomes: active, inactive

Field: example entries. Status: answers known.
O=C1Nc2ccccc2/C1=C/C(=O)c1ccc(N2CCOCC2)cc1 ... inactive
Cc1ccc(NC(=O)N[C@@H](Cc2cc(F)cc(F)c2)C(=O)N[C@@H]2C(=O)N3CCC[C@H]3C(=O)N3CCOC[C@H]3C(=O)N[C@@H](C)C(=O)N3C[C@H](C)C[C@H]3C(=O)O[C@H]2C)cc1 ... inactive
COc1ccc(/C=C2\N=C(Nc3ccccc3)N(NC(=O)c3ccccn3)C2=O)cc1 ... inactive

Query string: Kindly provide the recorded test outcome for the following compound: CCN(CC)c1ccc2cc(C(Nc3ccc(C)cc3)c3nnnn3C(C)(C)C)c(=O)oc2c1 (configuration not stated)
Result string: inactive

Query string: Kindly provide the recorded test outcome for the following compound: Cn1cc(-c2noc(-c3cn(C)c4ncc(F)cc34)n2)c2cc(Br)ccc21
Result string: inactive

----------
system: SNB-19 CNS; experiment: NCI-60 one-dose screen, 48 h; conditions: 10 µM unless noted
Compounds without any hit were thinned out: in the full panel of roughly 83,000, 20% have a hit. The source made the active and inactive calls. The calls were made as follows: active = growth percent below 10; inactive = the rest.
Please reply with one of these outcomes: active, inactive

Brc1ccc2c(c1)CN(C1CCCCC1)CO2 ... inactive

Query string: Kindly provide the recorded test outcome for the following compound: CC1(C)CC[C@]2(C(N)=O)CC[C@]3(C)C(=CC[C@@H]4[C@@]5(C)C/C(=C/c6cccnc6)C(=O)C(C)(C)[C@@H]5CC[C@]43C)[C@@H]2C1
Result string: active

Query string: Kindly provide the recorded test outcome for the following compound: Cc1cc(C)c(S(=O)(=O)/N=c2/n(-c3ccccc3)nc3n2CCN3C2=NCCN2)c(C)c1
Result string: inactive

----------
System: UACC-257 melanoma
Test: NCI-60 one-dose screen, 48 h
Conditions: 10 µM unless noted
Experimental: Cells are grown in 96 well plates and exposed to the test compound for 48 hours. Compounds are tested at a single concentration, which is 10^-5 M for most compounds. The reported endpoint is percent growth (GI% or GIPRCNT), where numbers from 0 - 100% represent growth inhibition, and numbers from -100% - 0 represent cell death. For example, a value of 40 represents 60% growth inhibition. A value of 0 means no net growth occurred over the course of the experiment. […]
The panel holds about 83,000 compounds, 20% with a hit somewhere; the sample as a whole holds those more often. The source made the active and inactive calls. The calls were made as follows: active = growth percent below 10; inactive = the rest.
Please reply with one of these outcomes: active, inactive

Cc1ccc(Oc2c(/C=N/NC(=O)Cn3c(=O)sc4ccccc43)c(C)nn2-c2ccccc2)cc1 ... inactive

Query string: Kindly provide the recorded test outcome for the following compound: CCCC(NC(=O)OCc1ccccc1)C(=O)O (stereo not drawn)
Result string: inactive

Query string: Kindly provide the recorded test outcome for the following compound: C[C@]12CCc3nc(Nc4ccccc4)sc3C1=CC[C@@H]1[C@@H]2CC[C@]2(C)/C(=N/NC(N)=S)CC[C@@H]12
Result string: inactive

Query string: Kindly provide the recorded test outcome for the following compound: COc1ccc(-c2cc(-c3ccc(Cl)cc3)nc(SCCCCCCC(=O)NO)n2)cc1
Result string: inactive

Query string: Kindly provide the recorded test outcome for the following compound: COc1ccc(-c2nc3ccccn3c2/C=C/C(=O)c2cc(OC)c(OC)c(OC)c2)cc1OC
Result string: inactive

Query string: Kindly provide the recorded test outcome for the following compound: O=C(CCN1CCCCC1)c1ccc2ccccc2c1
Result string: inactive

Query string: Kindly provide the recorded test outcome for the following compound: O=C(N/N=C\c1cc(Cl)ccc1O)N/N=C/c1cc(Cl)ccc1O
Result string: inactive

Query string: Kindly provide the recorded test outcome for the following compound: O=C(CSc1nc2ccc([N+](=O)[O-])cc2[nH]1)Nc1cccc(Cl)c1
Result string: inactive

Query string: Kindly provide the recorded test outcome for the following compound: O=C1NC(=O)C(Cc2ccc(OCc3ccc(-c4cc(F)c(F)c(F)c4)cc3)cc2)S1 (stereo not drawn)
Result string: inactive

Query string: Kindly provide the recorded test outcome for the following compound: Nn1c(Nc2ccc(S(=O)(=O)Nc3ncccn3)cc2)nnc(/C=C/c2c(O)ccc3ccccc23)c1=O
Result string: inactive

Query string: Kindly provide the recorded test outcome for the following compound: Oc1ccc(N=Nc2nccs2)c(O)c1
Result string: inactive

Query string: Kindly provide the recorded test outcome for the following compound: COc1ccc(/C=C/C(=C/c2c(O)[nH]c3cc(Br)ccc23)N=O)cc1
Result string: inactive

Query string: Kindly provide the recorded test outcome for the following compound: CCN(CC)c1ccc2cc(C(Nc3ccc(Br)c(C(F)(F)F)c3)c3nnnn3C(C)(C)C)c(=O)oc2c1 (stereo not drawn)
Result string: inactive

Query string: Kindly provide the recorded test outcome for the following compound: ClC1=C(Cl)C(Cl)=C(Cl)C1=Cc1ccccc1
Result string: active

Query string: Kindly provide the recorded test outcome for the following compound: COc1cc2c(cc1OCCCCCOc1ccc(-n3c(C)nc4ccccc4c3=O)cc1)N=C[C@@H]1CCCN1C2=O
Result string: inactive

Query string: Kindly provide the recorded test outcome for the following compound: N#C/C(=C(/O)CCCO)c1nc2ccccc2c(=O)[nH]1
Result string: inactive

Query string: Kindly provide the recorded test outcome for the following compound: COc1ccc2c(c1)c(-c1noc(-c3cn(C)c4ncc(F)cc34)n1)cn2C
Result string: inactive

Query string: Kindly provide the recorded test outcome for the following compound: Cn1cc(-c2noc(-c3cn(C)c4ncccc34)n2)c2cc(Cl)ccc21
Result string: inactive
